system: HEK-293T; test: Multiplex assay against HEK293T; format: toxicity, cell-based; details: human, 48 h, 1 µM, compound concentration 1 uM, replicate 1
The entries below come with measured Population Normal (%) values attached.
Supply the numeric figure in %, leaving out any unit text.

Known results for molecules:
* Cc1nn(C)c2nc(NNC(=O)Nc3cc(Cl)nc(Cl)c3)cc(C(C)C)c12 | 96
* O=C(Nc1cc(-c2ccccc2)nn1-c1ccccc1F)c1ccc([N+](=O)[O-])cc1 | 96
* COc1c(Nc2ccc(S(C)(=O)=O)nc2C)ncnc1OC1CCN(C(=O)OC(C)C)CC1 | 97
* COc1cc(Nc2ncc3c(n2)-c2ccc(Cl)cc2C(c2c(F)cccc2OC)=NC3)ccc1C(=O)O | 96
* CC(F)(F)CN1CCOc2c(nn(-c3ccccc3Cl)c2-c2ccc(Cl)cc2)C1=O | 99

Req: Please give the documented Population Normal (%) of `CC(C)(O)C(=O)N1CCN(c2ccc(C(F)(F)F)c(C3=C(c4c[nH]c5ccccc45)C(=O)NC3=O)c2)CC1`
Resp: 97

Req: For the molecule `S=C(NCCCc1c[nH]cn1)NCCCN(Cc1ccc(Cl)c(Cl)c1)c1ccc(Br)cn1` , report Population Normal (%).
Resp: 63

Req: Specify Population Normal (%) for `COc1cc(C(=O)N2CC[C@@H](O)[C@@H](N)C2)cc2nc(-c3cc4ccccc4n3CC3CC3)n(C)c12.Cl` and stop.
Resp: 94

Req: Check the records and state Population Normal (%) for `Cc1cc(NC(=O)NCCN2CCC(O)(Cc3ccccc3)CC2)c2ccccc2n1`
Resp: 96
